ASSAYED_TARGET: A1 (biotinylated pro-survival Bcl-2 family protein) (UniProt Q16548)
TEST_DESCRIPTION: flow cytometry of E. coli displaying the peptide on eCPX, biotinylated target + streptavidin-PE; apparent Kd
pKd: −log10 of the molar value. Where no end group is shown, it is not given here. eCPX = enhanced circularly permuted OmpX display scaffold; linker = not defined here
Label rule, in plain words: pKd of 8 and up is met, under 8 is not met.

The examples below pair each entry with its known result.
>>> cat("WVAQWLRRWGDEFN (peptide, not shown: large carriers; small tags and cut ends, also: displayed as fusion to eCPX scaffold (letters not given here)) [Bim BH3 14-mer variant X2-3 displayed on eCPX]")
"not met"
>>> cat("WLAQLLRRIGDEIN-{linker-eCPX} (peptide, not shown: large carriers; small tags and cut ends, reading uncertain; also: printed as Trp-Leu-Ala-Gln-Leu-Leu-Arg-Arg-Ile-Gly-Asp-Glu-Ile-Asn) [Bim BH3 14-mer variant M2-4 displayed on eCPX]")
"met"
>>> cat("WLAQLLRRYGDEFN (peptide, not shown: large carriers; small tags and cut ends, also: displayed as fusion to eCPX scaffold (letters not given here)) [Bim BH3 14-mer variant X2-8 displayed on eCPX]")
"not met"
>>> cat("WIAQELRRIGDEFN-{linker-eCPX} (peptide, not shown: large carriers; small tags and cut ends, reading uncertain) [wild-type Bim BH3 14-mer peptide (residues 147-160) displayed on eCPX]")
"not met"

Given WIAQQLRRIGDEFN (peptide, not shown: large carriers; small tags and cut ends, not fully specified) [Bim BH3 14-mer E151Q (pseudo-wild-type) displayed on eCPX] , state whether its pKd is at least 8.
not met
